- system: T1, PUF4 RNA-binding domain (Saccharomyces cerevisiae, UniProt P25339 537-888)
- T1 sequence: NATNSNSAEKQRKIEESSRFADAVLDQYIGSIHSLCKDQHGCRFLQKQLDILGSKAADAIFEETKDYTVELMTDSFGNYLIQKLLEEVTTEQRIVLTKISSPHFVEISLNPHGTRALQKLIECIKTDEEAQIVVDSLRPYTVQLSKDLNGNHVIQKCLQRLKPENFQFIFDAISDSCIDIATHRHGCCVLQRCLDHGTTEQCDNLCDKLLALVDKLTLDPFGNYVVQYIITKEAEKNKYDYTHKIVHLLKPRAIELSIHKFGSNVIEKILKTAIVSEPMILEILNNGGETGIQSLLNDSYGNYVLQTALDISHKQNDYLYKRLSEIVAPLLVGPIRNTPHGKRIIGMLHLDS
- test_details: Mg; RNA-MaP; 20 mM Na-HEPES pH 7.4, 30 mM KOAc, 0.75 mM MgCl2, 0.1% Tween-20, 5% glycerol, 0.1 mg/mL BSA, 2 mM DTT; 25 C; 0.0125-409.6 nM protein
- run_conditions: tags: N-His6-TEV cleaved; C-SNAP kept, Cy3B-labelled; label: tethered on chip by stalled RNA polymerase
pKd: −log10 of the molar value.
Where pKd equals or exceeds 7, the correct label is true (1); where it does not, the label is false (0).

| binder | class |
| --- | --- |
| Id_i_S4_P3E.2_K3.1_C3.2_[C-2T]_[T-1G]_H3.1_A3.1_F3.1_T3.2 (ssRNA) RNA: UUUGACAACUGAUCGUUCUUUCUUGUGUAUAUAUAUUCUUUCUCGAUCAGUUGUCUUU | true (1) |
| Ic_S2_P4E.1_K4.1_C4.1_H4.1_A4.1_[A6G]_[T7C]_F4.1_T4.1 (ssRNA) RNA: UUUGAUUAAUAUGAUAUCGUUCUUUCUUGUAUGCUAUUCUUUCUCGAUAUCAUAUUAAUCUUU | true (1) |
| UCUCUUUGUACCGUCCUCUCUU (ssRNA) [Ic_S1_P5E.1_K5.1_C5.1_H5.1_A5.1_[T5C]_[T6C]_[A7G]_F5.1_[T9C]_[A10C]_T5.1] | false (0) |
| ACAAACCUUAUUAUUAACAAAC (ssRNA) [Ib_S3_P5E.1_K5.1_C5.1_H5.1_[T1C]_[G2T]_A5.1_F5.1_T5.1] | false (0) |
| ACAAACGGUAUAUGAACAAAC (ssRNA) [Ib_S3_P4E.1_K4.1_C4.1_H4.1_[T1G]_A4.1_F4.1_[T8G]_T4.1] | false (0) |
| Ic_S2_P4E.1_K4.1_C4.1_H4.1_A4.1_[T5A]_[A6T]_[T7G]_F4.1_T4.1 (ssRNA) RNA: UUUGAUUAAUAUGAUAUCGUUCUUUCUUGUAAUGUAUUCUUUCUCGAUAUCAUAUUAAUCUUU | true (1) |
| Ic_S4_P5E.1_K5.1_C5.1_H5.1_A5.1_[T5A]_F5.1_[T8C]_[T9C]_[A10T]_T5.1 (ssRNA) RNA: UUUGACAACUGAUCGUUCUUUCUUGUAAUACCUUUCUUUCUCGAUCAGUUGUCUUU | false (0) |
| ACAAACUGAAUAAUAACAAAC (ssRNA) [Ib_S3_P4E.1_K4.1_C4.1_H4.1_[T3A]_A4.1_[T7A]_F4.1_T4.1] | false (0) |
| Id_ii_S4_P4E.3_K4.2_C4.2_[C-2T]_[T-1C]_H4.2_A4.1_F4.1_T4.2_[G10T]_[T11A] (ssRNA) RNA: UUUGACAACUGAUCGUUCUUUCUUCUAUAUAUUAUAUUCUUUCUCGAUCAGUUGUCUUU | true (1) |
| Ic_S2_P4E.1_K4.1_C4.1_H4.1_A4.1_[T5A]_[A6C]_[T7C]_F4.1_[T8A]_[A9C]_T4.1 (ssRNA) RNA: UUUGAUUAAUAUGAUAUCGUUCUUUCUUGUAACCACUUCUUUCUCGAUAUCAUAUUAAUCUUU | false (0) |
| Id_ii_S4_P3E.2_K3.1_C3.2_[T-1C]_H3.1_A3.1_F3.1_T3.2_[T9A]_[A10T] (ssRNA) RNA: UUUGACAACUGAUCGUUCUUUCUCCUGUAUAUAAUUUCUUUCUCGAUCAGUUGUCUUU | true (1) |
| ACAAACGAUAUAUAUAAGACAAAC (ssRNA) [Id_ii_S3_P3E.3_K3.2_C3.2_[C-2G]_[T-1A]_H3.2_A3.1_F3.1_T3.2_[T9A]_[A10G]] | false (0) |
| Ic_S4_P4E.1_K4.1_C4.1_H4.1_A4.1_[T5C]_F4.1_[T8A]_[A9G]_T4.1 (ssRNA) RNA: UUUGACAACUGAUCGUUCUUUCUUGUACAUAGUUCUUUCUCGAUCAGUUGUCUUU | true (1) |
| ACAAACUGCUCUAUAUUAACAAAC (ssRNA) [Ie_S3_P4E.1_K4.1_C4.1_H4.1_[+2CTC]_A4.1_F4.1_T4.1] | false (0) |
| UCUCUUUGUACAGUCUCUCUU (ssRNA) [Ic_S1_P4E.1_K4.1_C4.1_H4.1_A4.1_[T5C]_[T7G]_F4.1_[A9C]_T4.1] | true (1) |
| Id_ii_S4_P3E.3_K3.2_C3.2_H3.2_A3.1_F3.1_T3.2_[T9C]_[A10C] (ssRNA) RNA: UUUGACAACUGAUCGUUCUUUCUCUUAUAUAUACCUUCUUUCUCGAUCAGUUGUCUUU | false (0) |
| UCUCUUUGUACUUUAUUAUCUCUU (ssRNA) [Ie_S1_P5E.1_K5.1_C5.1_H5.1_[+4CT]_A5.1_F5.1_T5.1] | true (1) |
| Ic_S2_P5E.1_K5.1_C5.1_H5.1_A5.1_[T6C]_F5.1_[T8A]_[A10T]_T5.1 (ssRNA) RNA: UUUGAUUAAUAUGAUAUCGUUCUUUCUUGUAUCAAUUUUCUUUCUCGAUAUCAUAUUAAUCUUU | true (1) |
| Ie_S2_P4E.1_K4.1_C4.1_H4.1_[+1TCT]_A4.1_F4.1_T4.1 (ssRNA) RNA: UUUGAUUAAUAUGAUAUCGUUCUUUCUUUCUGUAUAUUAUUCUUUCUCGAUAUCAUAUUAAUCUUU | true (1) |
| UCUCUUUGUACGCCCAUCUCUU (ssRNA) [Ic_S1_P5E.1_K5.1_C5.1_H5.1_A5.1_[T5C]_[T6G]_[A7C]_F5.1_[T8C]_[T9C]_T5.1] | false (0) |
| Id_ii_S4_P5E.4_K5.3_C5.2_[C-2T]_[T-1A]_H5.3_A5.1_F5.1_T5.2 (ssRNA) RNA: UUUGACAACUGAUCGUUCUUUCUUAACACUUAUUAUAUUCUUUCUCGAUCAGUUGUCUUU | false (0) |
| Ic_S4_P4E.1_K4.1_C4.1_H4.1_A4.1_[A6G]_F4.1_[T8G]_[A9G]_T4.1 (ssRNA) RNA: UUUGACAACUGAUCGUUCUUUCUUGUAUGUGGUUCUUUCUCGAUCAGUUGUCUUU | false (0) |
